# tgt: T1, DVL3, Q92997
# T1 sequence (Q92997 244-331, limits assumed, looked up): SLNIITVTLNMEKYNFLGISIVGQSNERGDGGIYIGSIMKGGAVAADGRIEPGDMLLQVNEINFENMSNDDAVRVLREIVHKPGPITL
# assay_comment: holdup assay
# Set-up: key: below the threshold = too weak to quantify, mostly under pKd 3.1 to 4
# measurement_conditions: plain residues with an end cap or a label only (N-terminal biotin on a linker: ado-ado)
outcome_measure: pKd

> print(dat)
                           binder           test.value
 1     RGKNRRQSIF [CDK18, Q07002]  below the threshold
 2     ATKDKKITTV [EXOC4, Q96A65]  below the threshold
 3      SQDPKKPSRV [CBY2, Q8NA61]  below the threshold
 4    IQISELETNV [SLC1A7, O00341]  below the threshold
 5     DAAHHDESNC [FMNL3, Q8IVF7]  below the threshold
 6  QLKSGRDSTV [TMEM178A, Q8NBL3]  below the threshold
 7      TNSKQGETTV [FZD1, Q9UP38]                 3.61
 8     QLGSPTADLA [SIPA1, Q96FS4]  below the threshold
 9    HLSTRQGTCV [ATRNL1, Q5VV63]  below the threshold
10   NNMAFETTHF [SLC5A12, Q1EHB4]  below the threshold
11      DFKHTKSFII [JAM2, P57087]                 3.67
